- SYSTEM TESTED: human CB1 receptor (Homo sapiens)
- Sequence (P21554 whole entry): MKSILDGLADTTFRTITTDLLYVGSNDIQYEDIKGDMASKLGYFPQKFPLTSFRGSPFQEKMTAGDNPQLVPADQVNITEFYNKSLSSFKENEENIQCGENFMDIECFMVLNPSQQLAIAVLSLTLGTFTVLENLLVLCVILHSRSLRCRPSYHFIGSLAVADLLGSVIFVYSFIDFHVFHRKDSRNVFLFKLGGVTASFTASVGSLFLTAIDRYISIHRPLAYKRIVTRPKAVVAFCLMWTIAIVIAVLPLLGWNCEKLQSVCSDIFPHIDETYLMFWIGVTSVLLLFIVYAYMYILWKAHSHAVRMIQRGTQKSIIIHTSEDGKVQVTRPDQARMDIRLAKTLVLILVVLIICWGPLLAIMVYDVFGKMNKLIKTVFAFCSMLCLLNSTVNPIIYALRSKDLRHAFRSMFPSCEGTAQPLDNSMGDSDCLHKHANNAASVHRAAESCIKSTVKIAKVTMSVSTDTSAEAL
- METHOD: Binding assay, cannabinoid CB1 receptor ([3H]-CP-55,940 displacement)
- Design: expressed in transfected cells; host or cells: SK-N-MC cells, pcDNA3 CB-1 (human), semi-purified membranes
READOUT LABEL: IC50 (µM)
The answer is to be given in µM; state only the numeric part.

// field: IC50; key: O=C(NN1CCCCC1)c1nn(-c2ccc(Cl)cc2)c2c1CSC/C2=C\c1ccc(F)cc1 [Cpd 93] ; value = 0.036

Lab book: IC50 of O=C(NN1CCCCC1)c1nn(-c2ccc(Cl)cc2Cl)c2c1CS(=O)(=O)C/C2=C\c1ccc(Cl)o1 [Cpd 119] noted as 0.081

Input C[C@H](NC(=O)c1c2c(nn1-c1ccc(Cl)cc1Cl)/C(=C/c1ccc(F)cc1)CS(=O)(=O)C2)C1CCCCC1 [Cpd 85] . Output IC50: 0.035

Per the record, O=C(NN1CCCCC1)c1nn(-c2ccc(Cl)cc2Cl)c2c1C[S+]([O-])C/C2=C\c1ccc(F)cc1 (stereo not shown) [Cpd 79] has IC50 of 0.16

---

- SYSTEM TESTED: human CB-2 receptor (Homo sapiens)
- Construct: expressed in transfected cells; host or cells: SK-N-MC cells, pcDNA3 CB-2 (human), semi-purified membranes
- Sequence (P34972 whole entry): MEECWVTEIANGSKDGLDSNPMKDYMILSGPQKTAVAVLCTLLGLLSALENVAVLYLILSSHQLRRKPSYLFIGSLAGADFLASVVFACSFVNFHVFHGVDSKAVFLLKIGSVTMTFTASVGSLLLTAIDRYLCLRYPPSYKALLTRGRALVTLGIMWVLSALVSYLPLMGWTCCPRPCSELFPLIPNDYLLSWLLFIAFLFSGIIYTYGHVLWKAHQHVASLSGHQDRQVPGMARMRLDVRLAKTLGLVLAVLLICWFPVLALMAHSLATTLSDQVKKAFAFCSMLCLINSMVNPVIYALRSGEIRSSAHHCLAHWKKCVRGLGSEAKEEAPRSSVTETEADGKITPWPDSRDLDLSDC
- METHOD: Binding assay, cannabinoid CB2 receptor ([3H]-CP-55,940 displacement)
- CONDITIONS USED: test concentration 0.2 μM (superscript a); read-out: CB2 binding percent inhibition
READOUT LABEL: inhibition at 0.2 µM (%)
Express your answer in %, writing the number without its unit.

Entry "C[C@H](NC(=O)c1c2c(nn1-c1ccc(Cl)cc1Cl)/C(=C/c1ccc(F)cc1)CSC2)c1ccccc1" under human CB-2 receptor (Homo sapiens) had inhibition at 0.2 µM of 14

# value of inhibition at 0.2 µM, human CB-2 receptor (Homo sapiens), item "C[C@@H](NC(=O)c1nn(-c2ccc(Cl)cc2Cl)c2c1CS(=O)(=O)CC2)c1ccccc1" = 10

"C[C@@H](NC(=O)c1nn(-c2ccc(Cl)cc2Cl)c2c1CSC/C2=C\c1ccc(F)cc1)c1ccccc1" tested on human CB-2 receptor (Homo sapiens) gave inhibition at 0.2 µM: 6

Case "O=C(NN1CCCC1)c1nn(-c2ccc(Cl)cc2Cl)c2c1CSC/C2=C\c1ccc(F)cc1" , human CB-2 receptor (Homo sapiens), inhibition at 0.2 µM recorded as 15

Form field, inhibition at 0.2 µM with human CB-2 receptor (Homo sapiens), item "COC[C@H]1CCCN1NC(=O)c1nn(-c2ccc(Cl)cc2Cl)c2c1CSC/C2=C\c1ccc(F)cc1" : 18

// inhibition at 0.2 µM (human CB-2 receptor (Homo sapiens)) for O=S(=O)(/C=C/c1nn(-c2ccc(F)cc2F)c2c1CSCC2Cc1cccc(F)c1)NN1CCCCC1 (stereo not drawn) = 10

Entry CCOC(=O)[C@@H]1C2CCC(C2)[C@@H]1NC(=O)c1nn(-c2ccc(F)cc2F)c2c1CS(=O)(=O)C[C@H]2Cc1cccc(F)c1 (stereo partly drawn) , tested on human CB-2 receptor (Homo sapiens), has a reported inhibition at 0.2 µM of 24

Short answer on human CB-2 receptor (Homo sapiens) for "O=C(NN1CCCCC1)c1nn(-c2ccc(Cl)cc2Cl)c2c1CS(=O)(=O)C/C2=C\c1ccc(F)cc1" , inhibition at 0.2 µM: 24

Measured inhibition at 0.2 µM for this entry "C[C@@H](NC(=O)c1nn(-c2ccc(Cl)cc2Cl)c2c1CS(=O)(=O)C/C2=C\c1ccc(F)cc1)c1ccccc1" on human CB-2 receptor (Homo sapiens): 24

Sample C[C@@H](NS(=O)(=O)/C=C/c1n[nH]c2c1CSCC2Cc1cccc(F)c1)C1CCCCC1 (stereo partly drawn) , system: human CB-2 receptor (Homo sapiens). Its inhibition at 0.2 µM is 11

// assay human CB-2 receptor (Homo sapiens), entry "O=C(NN1CCCCC1)c1c2c(nn1-c1ccc(Cl)cc1Cl)/C(=C/c1ccc(F)cc1)CS(=O)(=O)C2" , inhibition at 0.2 µM value = 17

Summary line: "O=C(NN1CCCCCC1)c1nn(-c2ccc(Cl)cc2Cl)c2c1CS(=O)(=O)C/C2=C\c1ccc(Cl)o1" , human CB-2 receptor (Homo sapiens), reported inhibition at 0.2 µM = 12

Lab note: molecule O=C(NN1CC2CCCC2C1)c1c2c(nn1-c1ccc(Cl)cc1Cl)/C(=C/c1ccc(F)cc1)CSC2 (stereo not drawn) tested on human CB-2 receptor (Homo sapiens); recorded inhibition at 0.2 µM was 8

Lab note: molecule "CN1CCN(NC(=O)c2nn(-c3ccc(Cl)cc3Cl)c3c2CS(=O)(=O)C/C3=C\c2ccc(F)cc2)CC1" tested on human CB-2 receptor (Homo sapiens); recorded inhibition at 0.2 µM was 6

So the reported inhibition at 0.2 µM for "O=C(N[C@@H]1CCC[C@H]1O)c1nn(-c2ccc(Cl)cc2Cl)c2c1CS(=O)(=O)C/C2=C\c1ccc(F)cc1" , on human CB-2 receptor (Homo sapiens), turned out to be 15
